What follows is a record of IC50 for Coagulation factor VII/tissue factor (Homo sapiens, UniProt P08709).
Write down the numeric answer in µM and omit the unit.

Consider the reported IC50 for these compounds:
smiles-representation: CCCCC/C=C\C/C=C\C/C=C\CCCCC(=O)O
IC50, µM: 30
//
smiles-representation: CC/C=C\C/C=C\C/C=C\CCCCCCCCCC(=O)O
IC50, µM: 100
//
smiles-representation: CC/C=C\C/C=C\C/C=C\C/C=C\C/C=C\CCCC(=O)O
IC50, µM: 78

Value lookup for IC50; key = `CCCCC/C=C\C/C=C\C/C=C\C/C=C\CCCC(=O)O`
105

----------
- experiment: physchem
- stated-conditions: octanol/water, logP
- Description: Octanol-water partition coefficient, log P of the compound
Doc: threshold 3 (exclusive). Items with logP beneath it return YES; others return NO.

For orientation, consider the following solved cases.
smiles-representation: CCCCC/C=C\C/C=C\CCCCCCCCCC(=O)O
class-name: YES

smiles-representation: CCCCCCCC/C=C\CCCCCCCC(=O)O
class-name: NO

smiles-representation: CCCCCC/C=C\CCCCCCCC(=O)O
class-name: YES

smiles-representation: CC/C=C\C/C=C\C/C=C\CCCCCCCCCC(=O)O
class-name: NO

Could you now look at the following compound, please?
Field: below-cutoff. Rule: recorded logP strictly less than 3. Subject: `CC/C=C\C/C=C\C/C=C\CCCCCCCC(=O)O`
YES

----------
- experiment: physchem
- stated-conditions: octanol/water, logP
Below, each entry is listed alongside its reported logP.
Response field accepts a number only; no unit should be typed.

compound: CCCCC/C=C\C/C=C\CCCCCCCc1cccc(O)c1C(=O)O
logP: 3.72
--
compound: CCCCCC/C=C\CCCCCCCc1cccc(O)c1C(=O)O [GINGKOLIC ACID]
logP: 3.99
--
compound: CCCCC/C=C\C/C=C\C/C=C\CCCCC(=O)O [GAMOLENIC ACID]
logP: 2.55

Value lookup for logP; key = CCCCC/C=C\C/C=C\C/C=C\CCCCCCC(=O)O [DIHOMO-GAMMA-LINOLENIC ACID]
3.5

Value lookup for logP; key = CC/C=C\C/C=C\C/C=C\C/C=C\C/C=C\CCCC(=O)O [ICOSAPENT]
2.48

----------
- experiment: physchem
- stated-conditions: octanol/water
test-readout: logP
Response field accepts a number only; no unit should be typed.

Value lookup for logP; key = CCCCC/C=C\C/C=C\C/C=C\C/C=C\CCCC(=O)O [ARACHIDONIC ACID]
2.9

Reference for the values: ChEMBL document CHEMBL1151306
